test-target: human MC1R (Homo sapiens)
Construct: expressed in transfected cells
Sequence (Q01726 whole entry): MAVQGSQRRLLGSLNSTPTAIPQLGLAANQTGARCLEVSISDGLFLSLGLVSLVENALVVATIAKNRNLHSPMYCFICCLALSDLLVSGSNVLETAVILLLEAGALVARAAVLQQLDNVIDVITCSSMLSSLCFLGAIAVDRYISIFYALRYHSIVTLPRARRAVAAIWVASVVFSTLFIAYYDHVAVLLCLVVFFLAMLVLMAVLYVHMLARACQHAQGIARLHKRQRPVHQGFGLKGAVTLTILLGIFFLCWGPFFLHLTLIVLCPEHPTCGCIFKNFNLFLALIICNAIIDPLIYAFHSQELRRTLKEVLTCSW
experimental-protocol: Functional cAMP assay (CisBio HTRF) in BHK cells expressing human MC1R
Type: cell-based
condition-summary: BHK cells expressing human MC1R; '>' = highest dose used with no response; read-out: MC1R cAMP EC50
pEC50: −log10 of the molar value. Positions of bridges follow the written chain, without caps; N, C: chain ends. Non-standard residues stand in square brackets, D forms with d. Residues, ends and D or L forms follow the SMILES beside them. Hyp = O=C(O)[C@@H]1C[C@@H](O)CN1; Cit = NC(=O)NCCC[C@H](N)C(=O)O; Aib = CC(C)(N)C(=O)O
Reported pEC50 values for a set of compounds
quantity-measured: pEC50

compound	result-comparator	value
CC1(C)NC(=O)[C@@H]2CSSC[C@H](NC(=O)[C@H](Cc3c[nH]c4ccccc34)NC(=O)[C@H](CCCNC(=N)N)NC(=O)[C@@H](Cc3ccccc3)NC(=O)[C@@H]3C[C@@H](O)CN3C1=O)C(=O)NC(C)(C)C(=O)N1C[C@H](O)C[C@H]1C(=O)N[C@H](Cc1ccccc1)C(=O)N[C@@H](CCCNC(=N)N)C(=O)N[C@@H](Cc1c[nH]c3ccccc13)C(=O)N2 [Chem. 38] (cyclo([Aib][Hyp][dF]RWC[Aib][Hyp][dF]RWC); disulfide 6-12)	<	8.43
C[C@@H]1NC(=O)[C@@H]2CSSC[C@H](NC(=O)[C@H](Cc3c[nH]c4ccccc34)NC(=O)[C@H](CCCNC(N)=O)NC(=O)[C@@H](Cc3ccccc3)NC(=O)[C@H](Cc3c[nH]cn3)NC1=O)C(=O)N[C@@H](C)C(=O)N[C@@H](CCC(=O)O)C(=O)N[C@@H](CCC(=O)O)C(=O)N[C@@H](CCC(=O)O)C(=O)N[C@@H](Cc1c[nH]c3ccccc13)C(=O)N2 [Chem. 45] (cyclo(AEEEWCAH[dF][Cit]WC); disulfide 6-12)	<	7.00
C[C@@H]1NC(=O)[C@@H]2CSSC[C@H](NC(=O)[C@H](Cc3c[nH]c4ccccc34)NC(=O)[C@H](CCCNC(=N)N)NC(=O)[C@@H](Cc3ccccc3)NC(=O)[C@H](Cc3c[nH]cn3)NC1=O)C(=O)N[C@@H](C)C(=O)N[C@@H](Cc1ccc(O)cc1)C(=O)N[C@@H](Cc1ccccc1)C(=O)N[C@@H](CCCCN)C(=O)N[C@@H](Cc1c[nH]c3ccccc13)C(=O)N2 [Chem. 80] (cyclo(AH[dF]RWCAYFKWC); disulfide 6-12)	=	8.06
C[C@@H]1NC(=O)[C@@H]2CSSC[C@H](NC(=O)[C@H](Cc3c[nH]c4ccccc34)NC(=O)[C@@H]3C[C@@H](NC(=N)N)CN3C(=O)[C@@H](Cc3ccccc3)NC(=O)[C@H](Cc3c[nH]cn3)NC1=O)C(=O)N[C@@H](C)C(=O)N[C@@H](Cc1c[nH]cn1)C(=O)N[C@H](Cc1ccccc1)C(=O)N1C[C@H](NC(=N)N)C[C@H]1C(=O)N[C@@H](Cc1c[nH]c3ccccc13)C(=O)N2 [Chem. 28]	<	7.00
C[C@@H]1NC(=O)[C@@H]2CSSC[C@H](NC(=O)[C@H](Cc3c[nH]c4ccccc34)NC(=O)[C@H](CCCCNC(=N)N)NC(=O)[C@@H](Cc3ccccc3)NC(=O)[C@H](Cc3c[nH]cn3)NC1=O)C(=O)N[C@@H](C)C(=O)N[C@@H](Cc1c[nH]cn1)C(=O)N[C@H](Cc1ccccc1)C(=O)N[C@@H](CCCCNC(=N)N)C(=O)N[C@@H](Cc1c[nH]c3ccccc13)C(=O)N2 [Chem. 22]	=	9.66

----------
test-target: human MC1R (Homo sapiens)
Construct: expressed in transfected cells
experimental-protocol: Functional cAMP assay (CisBio HTRF) in BHK cells expressing human MC1R
Assay type: cell-based
pEC50: −log10 of the molar value. Positions of bridges follow the written chain, without caps; N, C: chain ends. Non-standard residues stand in square brackets, D forms with d. Residues, ends and D or L forms follow the SMILES beside them.
Catalogue of pEC50 readings, one per entry.

molecule	pEC50
C[C@@H]1NC(=O)[C@H](C)NC(=O)[C@H](C)NC(=O)[C@@H]2CSSC[C@H](NC(=O)[C@H](CCCNC(=N)N)NC(=O)[C@H](C)NC1=O)C(=O)N[C@@H](C)C(=O)N[C@@H](Cc1c[nH]cn1)C(=O)N[C@H](Cc1ccccc1)C(=O)N[C@@H](CCCNC(=N)N)C(=O)N[C@@H](Cc1c[nH]c3ccccc13)C(=O)N2 [Chem. 89] (cyclo(AAAARCAH[dF]RWC); disulfide 6-12)	9.23
C[C@@H]1NC(=O)[C@@H]2CSSC[C@H](NC(=O)[C@H](Cc3c[nH]c4ccccc34)NC(=O)[C@H](CCCNC(=N)N)NC(=O)[C@@H](Cc3ccccc3)NC(=O)[C@H](Cc3c[nH]cn3)NC1=O)C(=O)N[C@@H](CCCNC(=N)N)C(=O)N[C@@H](Cc1ccccc1)C(=O)N[C@@H](Cc1ccccc1)C(=O)N[C@@H](CC(N)=O)C(=O)N[C@@H](C)C(=O)N2 [Chem. 12] (cyclo(ACAH[dF]RWCRFFN); disulfide 2-8)	8.40
C[C@@H]1NC(=O)[C@@H]2CSSC[C@H](NC(=O)[C@H](Cc3c[nH]c4ccccc34)NC(=O)[C@H](CCCNC(=N)N)NC(=O)[C@H](Cc3ccccc3)NC(=O)[C@H](Cc3c[nH]cn3)NC1=O)C(=O)N[C@@H](C)C(=O)N[C@@H](Cc1c[nH]cn1)C(=O)N[C@@H](Cc1ccccc1)C(=O)N[C@@H](CCCNC(=N)N)C(=O)N[C@@H](Cc1c[nH]c3ccccc13)C(=O)N2	7.45

----------
The entries below come with measured MC1R/MC4R cAMP EC50 ratio values attached.
test-target: human MC4R (Homo sapiens, UniProt P32245)
Construct: expressed in transfected cells
Sequence (P32245 whole entry): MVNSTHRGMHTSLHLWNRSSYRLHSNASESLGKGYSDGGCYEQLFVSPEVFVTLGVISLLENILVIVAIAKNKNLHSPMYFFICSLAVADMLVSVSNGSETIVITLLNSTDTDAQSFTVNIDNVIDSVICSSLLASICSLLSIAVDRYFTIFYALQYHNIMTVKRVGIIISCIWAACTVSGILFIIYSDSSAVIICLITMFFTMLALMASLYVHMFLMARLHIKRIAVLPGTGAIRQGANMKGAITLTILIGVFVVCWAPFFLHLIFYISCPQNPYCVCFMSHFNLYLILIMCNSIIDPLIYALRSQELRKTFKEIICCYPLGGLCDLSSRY
experimental-protocol: Functional cAMP assay (CisBio HTRF) in BHK cells expressing human MC4R
Assay type: cell-based
condition-summary: MC1R cAMP EC50 divided by MC4R cAMP EC50
Positions of bridges follow the written chain, without caps; N, C: chain ends. Non-standard residues stand in square brackets, D forms with d. Residues, ends and D or L forms follow the SMILES beside them. Thz = O=C(O)[C@@H]1CSCN1

compound	result-comparator	MC1R/MC4R cAMP EC50 ratio
C[C@@H]1NC(=O)[C@@H]2CSSC[C@H](NC(=O)[C@H](CCCNC(=N)N)NC(=O)[C@H](CCCCN)NC(=O)[C@H](CCCCN)NC(=O)[C@H](CCCCN)NC1=O)C(=O)N1CCC[C@H]1C(=O)N[C@@H](Cc1c[nH]cn1)C(=O)N[C@H](Cc1ccccc1)C(=O)N[C@@H](Cc1c[nH]cn1)C(=O)N[C@@H](Cc1c[nH]c3ccccc13)C(=O)N2 [Chem. 71] (cyclo(AKKKRCPH[dF]HWC); disulfide 6-12)	=	415
C[C@@H]1NC(=O)[C@@H]2CSSC[C@H](NC(=O)[C@H](Cc3c[nH]c4ccccc34)NC(=O)[C@H](CCCNC(=N)N)NC(=O)[C@@H](Cc3ccccc3)NC(=O)[C@H](Cc3c[nH]cn3)NC1=O)C(=O)N[C@@H](C)C(=O)N[C@@H](Cc1c[nH]cn1)C(=O)N[C@H](Cc1ccccc1)C(=O)N[C@@H](CCCNC(=N)N)C(=O)N[C@@H](Cc1c[nH]c3ccccc13)C(=O)N2	=	31
C[C@@H]1NC(=O)[C@H](CCC(=O)O)NC(=O)[C@H](CC(=O)O)NC(=O)[C@H](C)NC(=O)[C@@H]2CSSC[C@H](NC(=O)[C@H](Cc3c[nH]c4ccccc34)NC1=O)C(=O)N1CSC[C@H]1C(=O)N[C@@H](Cc1c[nH]cn1)C(=O)N[C@H](Cc1ccccc1)C(=O)N[C@@H](Cc1c[nH]cn1)C(=O)N[C@@H](Cc1c[nH]c3ccccc13)C(=O)N2 [Chem. 107] (cyclo(ADEAWC[Thz]H[dF]HWC); disulfide 6-12)	>	10
C[C@@H]1NC(=O)[C@@H]2CSSC[C@H](NC(=O)[C@H](Cc3c[nH]c4ccccc34)NC(=O)[C@H](CCCN)NC(=O)[C@@H](Cc3ccccc3)NC(=O)[C@H](Cc3c[nH]cn3)NC1=O)C(=O)N[C@@H](C)C(=O)N[C@@H](Cc1c[nH]cn1)C(=O)N[C@H](Cc1ccccc1)C(=O)N[C@@H](CCCN)C(=O)N[C@@H](Cc1c[nH]c3ccccc13)C(=O)N2	>	5
N=C(N)NCCC[C@@H]1NC(=O)[C@@H](Cc2ccccc2)NC(=O)[C@H](Cc2c[nH]cn2)NC(=O)[C@H](CCC(=O)O)NC(=O)[C@@H]2CSSC[C@H](NC(=O)[C@H](Cc3c[nH]c4ccccc34)NC1=O)C(=O)N[C@@H](CCC(=O)O)C(=O)N[C@@H](Cc1c[nH]cn1)C(=O)N[C@H](Cc1ccccc1)C(=O)N[C@@H](CCCNC(=N)N)C(=O)N[C@@H](Cc1c[nH]c3ccccc13)C(=O)N2 [Chem. 51] (cyclo(CEH[dF]RWCEH[dF]RW); disulfide 1-7)	=	13
